- target.entity: T1, NaPi2b expressed on IGROV-1 cells (Homo sapiens, UniProt O95436)
- T1 construct: IGROV-1 cells express endogenous NaPi2b at a high level; endogenous in cells; host or cells: IGROV-1
- T1 sequence (O95436 1-690): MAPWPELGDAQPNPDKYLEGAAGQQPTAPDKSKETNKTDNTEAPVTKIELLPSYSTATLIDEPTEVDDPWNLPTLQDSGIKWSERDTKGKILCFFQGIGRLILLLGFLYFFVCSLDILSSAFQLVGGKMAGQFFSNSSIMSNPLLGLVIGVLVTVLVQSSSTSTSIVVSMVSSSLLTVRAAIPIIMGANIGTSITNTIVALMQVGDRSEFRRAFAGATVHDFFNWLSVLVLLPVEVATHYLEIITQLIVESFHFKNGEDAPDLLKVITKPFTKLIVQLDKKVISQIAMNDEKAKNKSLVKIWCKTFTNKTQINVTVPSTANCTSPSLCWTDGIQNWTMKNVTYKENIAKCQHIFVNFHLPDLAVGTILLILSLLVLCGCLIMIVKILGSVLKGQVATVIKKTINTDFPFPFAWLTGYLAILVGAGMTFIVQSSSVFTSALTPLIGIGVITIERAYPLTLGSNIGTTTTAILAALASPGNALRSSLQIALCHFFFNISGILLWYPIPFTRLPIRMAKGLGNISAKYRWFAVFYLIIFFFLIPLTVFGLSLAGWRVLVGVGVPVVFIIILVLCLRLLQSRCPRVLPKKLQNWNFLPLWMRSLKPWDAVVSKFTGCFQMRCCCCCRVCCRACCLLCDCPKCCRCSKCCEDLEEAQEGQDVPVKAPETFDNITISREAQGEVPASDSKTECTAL
- test.name: Cellular binding of bivalent antibodies to IGROV-1 cells by flow cytometry (Example 13)
- test.settings: IGROV-1, 24 hours at 4° C.; NB = no cellular binding
quantity.kind: Bmax (MFI)

Record excerpt, results attached:
>  <molecule>
v29460: humanized anti-NaPi2b IgG1/kappa antibody H1L1; VH SEQ ID NO:24, VL SEQ ID NO:28 (antibody, V domains shown, v29452, v29456, v29460 VH (H1); v29457, v29458, v29459, v29460 VL (L1)) VH: QVQLVQSGAEVKKPGASVKVSCKASGFTFTSYNVHWVRQAPGQGLEWMGAISPGNGDLSYAQKFQGRVTMTRDTSTSTVYMELSSLRSEDTAVYYCARGRTGMGAVDYWGQGTLVTVSS VL: DIQMTQSPSSLSASVGDRVTITCRASQDVYSYLNWYQQKPGKAPKLLIYYTSRLQSGVPSRFSGSGSGTDFTLTISSLQPEDFATYYCQQYNIFPWTFGQGTKLEIK

>  <quantity.kind>
Bmax (MFI)

>  <measurement>
40,071 MFI

$$$$
>  <molecule>
v29455: humanized anti-NaPi2b IgG1/kappa antibody H2L2; VH SEQ ID NO:25, VL SEQ ID NO:29 (antibody, V domains shown, v29451, v29455, v29459 VH (H2); v29453, v29454, v29455, v29456 VL (L2)) VH: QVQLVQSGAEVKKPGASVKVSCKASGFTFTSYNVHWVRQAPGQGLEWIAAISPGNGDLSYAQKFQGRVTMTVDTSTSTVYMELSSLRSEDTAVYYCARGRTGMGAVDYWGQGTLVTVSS VL: DVQMTQSPSSLSASVGDRVTITCRASQDVYSYLNWYQQKPGKAVKLLIYYTSRLQSGVPSRFSGSGSGTDYTLTISSLQPEDFATYYCQQYNIFPWTFGQGTKLEIK

>  <quantity.kind>
Bmax (MFI)

>  <measurement>
41,917 MFI

$$$$
>  <molecule>
v29454: humanized anti-NaPi2b IgG1/kappa antibody H3L2; VH SEQ ID NO:26, VL SEQ ID NO:29 (antibody, V domains shown, v29450, v29454, v29458 VH (H3); v29453, v29454, v29455, v29456 VL (L2)) VH: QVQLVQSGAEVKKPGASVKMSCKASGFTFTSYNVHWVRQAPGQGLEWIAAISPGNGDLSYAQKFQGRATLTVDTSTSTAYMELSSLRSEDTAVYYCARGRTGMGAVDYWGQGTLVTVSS VL: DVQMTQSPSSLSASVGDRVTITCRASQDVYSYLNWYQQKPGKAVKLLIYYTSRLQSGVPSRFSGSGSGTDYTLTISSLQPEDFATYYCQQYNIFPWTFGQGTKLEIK

>  <quantity.kind>
Bmax (MFI)

>  <measurement>
42,278 MFI

$$$$
>  <molecule>
v18993-DL2 (conjugate, chains of the INN, looked up, drug-linker DL2) VH: EVQLVESGGGLVQPGGSLRLSCAASGFSFSDFAMSWVRQAPGKGLEWVATIGRVAFHTYYPDSMKGRFTISRDNSKNTLYLQMNSLRAEDTAVYYCARHRGFDVGHFDFWGQGTLVTVSS VL: DIQMTQSPSSLSASVGDRVTITCRSSETLVHSSGNTYLEWYQQKPGKAPKLLIYRVSNRFSGVPSRFSGSGSGTDFTLTISSLQPEDFATYYCFQGSFNPLTFGQGTKVEIK

>  <quantity.kind>
Bmax (MFI)

>  <measurement>
39,758 MFI

$$$$

Please turn your attention to the following entry.
Supply measured Bmax (MFI) of v29449: humanized anti-NaPi2b IgG1/kappa antibody H4L3; VH SEQ ID NO:27, VL SEQ ID NO:30 (antibody, V domains shown, v29449, v29453, v29457 VH (H4); v29449, v29450, v29451, v29452 VL (L3)) VH: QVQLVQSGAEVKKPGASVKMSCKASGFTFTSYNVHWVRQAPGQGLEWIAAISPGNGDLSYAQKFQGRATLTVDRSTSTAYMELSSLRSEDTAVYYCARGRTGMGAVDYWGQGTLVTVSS VL: DVQMTQSPSSLSASVGDRVTITCRASQDVYSYLNWYQQKPGKAVKLLIYYTSRLQSGVPSRFSGSGSGTDYTLTISSLQPEDIATYYCQQYNIFPWTFGQGTKLEIK in your reply.
44,460 MFI
